assay: Human HepG2 cell viability assay in 384 well format; type: toxicity, cell-based; parameters: dose 125 nL, time 70.5 hour; concentration not given beside the values; conditions: HepG2 cells, read-out: Inhibition
Measured cytotoxicity at 70.5 h values are reported for all entries that follow.
Parameter: cytotoxicity at 70.5 h (%)

INSERT INTO assay_data (compound, parameter, readout_value) VALUES
  ('Cc1nc(CN2CCN(C(=O)c3ccc(=O)n(C)c3)CC2)cs1', 'cytotoxicity at 70.5 h', -2.46),
  ('CC(C)CNC(=O)c1ccc2c(=O)n(-c3ccccc3)cnc2c1', 'cytotoxicity at 70.5 h', -5.61),
  ('CCC(=O)N1CCC(Cc2cnc(Nc3cnccn3)cn2)CC1', 'cytotoxicity at 70.5 h', -11.1),
  ('Cc1ccc(S(=O)(=O)NCC(C)C#N)cc1Br (stereo unspecified)', 'cytotoxicity at 70.5 h', -4.59),
  ('Cc1nc(N2CCN(C(=O)c3cccs3)CC2)cc(-n2cccc2)n1', 'cytotoxicity at 70.5 h', 1.27),
  ('CCS(=O)(=O)Nc1ccc2[nH]c(C3CCC3)nc2c1', 'cytotoxicity at 70.5 h', -6.11),
  ('CC(C)NC(=O)CN1CCN(CC2CCOc3ccccc3C2)CC1 (stereo unspecified)', 'cytotoxicity at 70.5 h', -7.34),
  ('CNc1nc(CNC(=O)Nc2cccc(CSC)c2)cs1', 'cytotoxicity at 70.5 h', -3.79),
  ('N#Cc1cccc(CN2CCN(C(=O)C3CCC3)[C@@H]3CS(=O)(=O)C[C@@H]32)c1', 'cytotoxicity at 70.5 h', -4.15),
  ('CC(C)N1CCO[C@H]2CN(C(=O)c3ccccn3)C[C@H]21', 'cytotoxicity at 70.5 h', -7.58),
  ('Cc1ccsc1[C@@H]1CCN(C(=O)c2cc3ccccc3[nH]2)C[C@H]1O', 'cytotoxicity at 70.5 h', 0.623),
  ('c1ccc(Cn2cc(CNC3CCc4ncnn4C3)cn2)cc1 (stereo unspecified)', 'cytotoxicity at 70.5 h', -7.61),
  ('CS(=O)(=O)NCc1cc2n(n1)CCCN(Cc1cccc(C#N)c1)C2', 'cytotoxicity at 70.5 h', -9.28),
  ('O=C(NC1CC1)c1ccn(COc2c(Cl)cccc2Cl)n1', 'cytotoxicity at 70.5 h', -14.6),
  ('O=C1C(NCc2nnc3n2CCCC3)CCCN1c1cccc(F)c1 (stereo unspecified)', 'cytotoxicity at 70.5 h', -3.38),
  ('Cc1cccc(C)c1OC1CN(C(=O)C2CC(=O)N(C(C)(C)C)C2)C1 (stereo unspecified)', 'cytotoxicity at 70.5 h', 18.1),
  ('N#Cc1ncn(CC(=O)Nc2cc(Cl)ccc2F)n1', 'cytotoxicity at 70.5 h', -3.28),
  ('O=C(NCC1CC1)[C@H]1CC[C@@H]2[C@@H](CCN2Cc2ccoc2)O1', 'cytotoxicity at 70.5 h', -12.5),
  ('CCN1CCN(c2ccc(C(=O)NC(C)C(=O)N(C)C)cc2)CC1 (stereo unspecified)', 'cytotoxicity at 70.5 h', -4.6),
  ('O=C(N[C@@H]1CCN(Cc2cc3ccccc3s2)C[C@H]1O)c1cccnc1', 'cytotoxicity at 70.5 h', -3.4),
  ('CN(C1CCN(c2ccccn2)CC1)S(=O)(=O)c1cccs1', 'cytotoxicity at 70.5 h', -8.7),
  ('CC(C)N1CCC(CC(=O)N(C)CC(=O)c2ccc(O)cc2)CC1', 'cytotoxicity at 70.5 h', -1.48),
  ('COc1ccc2c(c1)CCCN2C(=O)NC1CCCCNC1=O (stereo unspecified)', 'cytotoxicity at 70.5 h', 23.6),
  ('CCn1nccc1CNC(=O)C1CCCCC1', 'cytotoxicity at 70.5 h', -0.635),
  ('COc1cc(C)nc(N2CCN(C(=O)c3cc(Cl)c[nH]3)CC2)n1', 'cytotoxicity at 70.5 h', -1.56),
  ('CC(C)CS(=O)(=O)CCNc1ncccn1', 'cytotoxicity at 70.5 h', -4.65),
  ('CS(=O)(=O)NC(=O)c1ccn(-c2ccc(Cl)c(Cl)c2)n1', 'cytotoxicity at 70.5 h', -3.09),
  ('NC(=O)N1CCCCCC1C1CCN(c2nccc(C(F)(F)F)n2)CC1 (stereo unspecified)', 'cytotoxicity at 70.5 h', -13.9),
  ('CC(NC(=O)NCCCN1CCCC1=O)c1ccc(Cl)s1 (stereo unspecified)', 'cytotoxicity at 70.5 h', -14.2),
  ('Cn1cc(S(=O)(=O)N2CCCC2Cn2ccnc2)cc1C(N)=O (stereo unspecified)', 'cytotoxicity at 70.5 h', -5.85),
  ('c1cncc(CN2CCCCC2c2ccc(Nc3cnccn3)nc2)c1 (stereo unspecified)', 'cytotoxicity at 70.5 h', -5.32),
  ('O=C1CCN(C(=O)NCC(c2ccccc2)c2ccccc2)CCN1', 'cytotoxicity at 70.5 h', -2.48),
  ('Cc1cc(-c2cnc(N3CCCC3)nc2C(C)C)on1', 'cytotoxicity at 70.5 h', -7.72),
  ('CCN(C(=O)c1nc2c(s1)CCCN2S(C)(=O)=O)C(C)C', 'cytotoxicity at 70.5 h', 13.1),
  ('CN(C)Cc1nnc(C2CCCN(c3cc(C(F)(F)F)ccn3)C2)n1C (stereo unspecified)', 'cytotoxicity at 70.5 h', -11.1),
  ('CCc1nc(C2CCCN2C(=O)c2cnc[nH]2)no1 (stereo unspecified)', 'cytotoxicity at 70.5 h', -7.25),
  ('NC(=O)CNC(c1ccccc1)c1ccc(OC(F)F)cc1 (stereo unspecified)', 'cytotoxicity at 70.5 h', 11.2),
  ('O=C(Cn1ccnc1)N1C[C@@H]2CC[C@H](Oc3ccccc3F)[C@@H]2C1', 'cytotoxicity at 70.5 h', 10.9),
  ('C[C@@H]1CN(C(=O)C2CCS(=O)(=O)CC2)C[C@]1(C)O', 'cytotoxicity at 70.5 h', -8.15),
  ('CO[C@@H]1CCN(S(=O)(=O)N(C)C)[C@@H]2CN(Cc3ccncc3)C[C@@H]21', 'cytotoxicity at 70.5 h', -1.72),
  ('Cn1cc(CN2CCCn3cnc(CN4CCCC4=O)c3C2)cn1', 'cytotoxicity at 70.5 h', -17.3),
  ('COc1ccc(Br)cc1SCCS(C)(=O)=O', 'cytotoxicity at 70.5 h', -4.19),
  ('Cc1cncc(C2CCN(C(=O)c3ccc(-n4cccn4)nc3)CC2)n1', 'cytotoxicity at 70.5 h', -2.8),
  ('Cc1ccc(CN2C[C@@H]3[C@@H](C(=O)NCC4CC4)CCS(=O)(=O)[C@@H]3C2)cc1', 'cytotoxicity at 70.5 h', -1.55),
  ('Cc1ccc(C(=O)N2CC(C(N)=O)O[C@H](C)C2)c(F)c1 (stereo partly specified)', 'cytotoxicity at 70.5 h', -0.939),
  ('Cc1cc(CN(C)CC2CC(C3CCCCC3)=NO2)no1 (stereo unspecified)', 'cytotoxicity at 70.5 h', 0.975);
